Biological target: hGIPR (Homo sapiens)
Sequence (P48546 22-466): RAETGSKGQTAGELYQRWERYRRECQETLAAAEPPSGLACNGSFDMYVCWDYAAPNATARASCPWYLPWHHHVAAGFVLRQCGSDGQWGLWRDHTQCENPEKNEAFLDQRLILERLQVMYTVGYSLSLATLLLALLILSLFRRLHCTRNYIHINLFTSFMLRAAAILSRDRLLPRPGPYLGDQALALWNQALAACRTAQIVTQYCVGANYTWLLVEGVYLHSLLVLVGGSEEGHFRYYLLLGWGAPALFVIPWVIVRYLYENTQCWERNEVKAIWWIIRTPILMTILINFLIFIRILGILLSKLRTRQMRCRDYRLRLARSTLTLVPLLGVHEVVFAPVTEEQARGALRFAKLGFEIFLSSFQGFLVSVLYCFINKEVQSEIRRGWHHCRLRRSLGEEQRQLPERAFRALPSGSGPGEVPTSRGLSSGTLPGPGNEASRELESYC
Assay: Functional cAMP activity in the presence of 1% HSA
Format: cell-based
Conditions: read-out: cAMP Rel EC50, hGIPR
Starred links: 1 amine or outer side, 2 acyl side, 3 side chain; linkers in the order of their positions; H or OH if unused. Non-standard residues stand in square brackets, D forms with d. Groups on a side chain read outwards from the residue. *: point of attachment. C18 diacid = O=C(O)CCCCCCCCCCCCCCCCC(=O)*; αMePhe(2-F) = C[C@](N)(Cc1ccccc1F)C(=O)O; γGlu = O=C(O)[C@H](CCC(=O)[*:2])N[*:1]; αMe4Pal = C[C@](N)(Cc1ccncc1)C(=O)O; αMeY = C[C@](N)(Cc1ccc(O)cc1)C(=O)O; 4Pal = N[C@@H](Cc1ccncc1)C(=O)O; αMeL = CC(C)C[C@](C)(N)C(=O)O; αMeS = C[C@](N)(CO)C(=O)O; Orn = NCCC[C@H](N)C(=O)O; AEEA = NCCOCCOCC(=O)O; Aib = CC(C)(N)C(=O)O
Mark true only when EC50 stays strictly below 20 nM. Values equal to the cut-off are false.

[
  {
    "SUBSTANCE": "H-Y[Aib]QGT[αMePhe(2-F)]TSD[4Pal][αMeS]I[αMeL]LD[Orn]K([AEEA-γGlu-C18 diacid])AQ[αMe4Pal]EFI[dE][αMeY]LIEGGPPS[Aib][Orn]PPP[Orn]GGGE-NH2 [Example 1197]",
    "ASSIGNED CLASS": "true"
  },
  {
    "SUBSTANCE": "H-Y[Aib]QGTFTSDFS[Orn][αMeL]LDKK([AEEA-AEEA-γGlu-C18 diacid])AQ[Aib]AFIEYLLE[Aib]GESSGAPPPSGT-NH2 [Example 180]",
    "ASSIGNED CLASS": "false"
  },
  {
    "SUBSTANCE": "H-Y[Aib]QGTFTSDFS[Orn][αMeL]LDKK([AEEA-γGlu-C18 diacid])AQ[Aib]AFIEYLLE[Aib]GPSSGAPPPSGS-NH2 [Example 74]",
    "ASSIGNED CLASS": "true"
  },
  {
    "SUBSTANCE": "H-Y[Aib]QGTFTSD[4Pal]SQ[αMeL]LDKK([γGlu-γGlu-C18 diacid])AQ[αMe4Pal]AFIEYLIAGGPSSGAPPPEGS-NH2 [Example 969]",
    "ASSIGNED CLASS": "true"
  },
  {
    "SUBSTANCE": "H-Y[Aib]QGTFTSD[4Pal]SQ[αMeL]LDKK([AEEA-γGlu-γGlu-C18 diacid])AQ[αMe4Pal]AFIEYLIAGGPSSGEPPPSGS-NH2 [Example 947]",
    "ASSIGNED CLASS": "true"
  }
]
